target: EGFR L858R (Homo sapiens, UniProt P00533, L858R); construct: purchased Carna Bio; assay: Inhibition of EGFR L858R biochemical enzymatic activity (HTRF); conditions: 1 mM ATP, 1 h, room temperature, read-out: IC50 (nM) @L858R
Sequence (P00533 25-1210 L858R): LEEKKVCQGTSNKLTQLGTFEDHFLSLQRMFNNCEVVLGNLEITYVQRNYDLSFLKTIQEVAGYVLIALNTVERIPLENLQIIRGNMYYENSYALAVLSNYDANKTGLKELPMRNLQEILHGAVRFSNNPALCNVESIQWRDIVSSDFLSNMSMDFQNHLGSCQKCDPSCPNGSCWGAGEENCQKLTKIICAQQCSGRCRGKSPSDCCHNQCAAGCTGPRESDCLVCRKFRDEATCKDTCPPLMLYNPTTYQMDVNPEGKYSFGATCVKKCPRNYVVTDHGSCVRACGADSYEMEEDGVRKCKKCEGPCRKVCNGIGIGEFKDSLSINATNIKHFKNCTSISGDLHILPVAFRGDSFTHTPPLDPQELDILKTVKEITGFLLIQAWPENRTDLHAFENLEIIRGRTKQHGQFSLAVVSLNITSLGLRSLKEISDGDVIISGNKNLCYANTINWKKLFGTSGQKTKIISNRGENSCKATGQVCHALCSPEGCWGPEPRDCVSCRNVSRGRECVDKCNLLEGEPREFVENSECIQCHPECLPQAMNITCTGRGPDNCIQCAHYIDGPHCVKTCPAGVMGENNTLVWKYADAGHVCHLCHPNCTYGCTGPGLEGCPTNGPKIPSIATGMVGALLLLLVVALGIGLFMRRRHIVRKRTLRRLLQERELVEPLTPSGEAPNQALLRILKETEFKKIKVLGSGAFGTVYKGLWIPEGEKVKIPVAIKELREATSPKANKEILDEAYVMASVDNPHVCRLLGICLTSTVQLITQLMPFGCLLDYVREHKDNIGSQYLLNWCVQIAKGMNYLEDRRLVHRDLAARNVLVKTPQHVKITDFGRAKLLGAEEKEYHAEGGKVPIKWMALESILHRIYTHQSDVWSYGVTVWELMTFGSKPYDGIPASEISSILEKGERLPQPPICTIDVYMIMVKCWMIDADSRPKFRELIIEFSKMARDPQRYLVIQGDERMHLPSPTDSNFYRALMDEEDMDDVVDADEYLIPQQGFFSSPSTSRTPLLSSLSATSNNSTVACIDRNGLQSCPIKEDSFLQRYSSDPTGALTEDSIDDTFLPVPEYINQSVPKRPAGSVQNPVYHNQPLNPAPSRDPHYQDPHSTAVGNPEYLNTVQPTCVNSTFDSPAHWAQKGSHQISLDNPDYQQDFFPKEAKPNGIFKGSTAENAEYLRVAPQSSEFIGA
Please note: IC50 exactly at 10 nM is Not met. Only values below 10 nM get Met.

CN1CCN(c2ccc3c(c2)nc2n3C34CCC(CN(CCOc5c(cnn5C)-c5cc(cn(C)c5=O)C(=O)N2)C3)C4)CC1 (centres unmarked) [Example A60B]
Not met
CN(C)C1CN(c2ccc3nc4n(c3c2)C23CCC(CN(CCOc5c(cnn5C)-c5cc(cn(C)c5=O)C(=O)N4)C2)C3)CC1F (single isomer, unassigned) [Example A84C]
Met
CN1CCC2(CCN(c3ccc4nc5n(c4c3)C34CCC(CN(CCOc6c(cnn6C)-c6cc(cn(C)c6=O)C(=O)N5)C3)C4)C2)C1 (single isomer, unassigned) [Example A81B]
Met
C[C@@H]1CCCOc2c(cnn2C)-c2cc(cn(C)c2=O)C(=O)Nc2nc3ccc(N4CCNCC4)c(Cl)c3n2C1
Not met
Cn1ncc2c1OCCN1CC3CCC(CC3)(C1)n1c(nc3ccc(N4CCN(C5CC5)CC4)cc31)NC(=O)c1cc-2c(=O)n(C)c1
Not met
CN1CCC12CCN(c1ccc3nc4n(c3c1)C13CCC(CN(CCOc5c(cnn5C)-c5cc(cn(C)c5=O)C(=O)N4)C1)C3)CC2 (single isomer, unassigned) [Example A67B]
Met
CN1CCC2CN(c3ccc4nc5n(c4c3)C34CCC(CN(CCOc6c(cnn6C)-c6cc(cn(C)c6=O)C(=O)N5)C3)C4)CC21 (single isomer, unassigned) [Example A79A]
Not met
CN1CCC2(C1)CN(c1ccc3nc4n(c3c1)C13CCC(CN(CCOc5c(cnn5C)-c5cc(cn(C)c5=O)C(=O)N4)C1)C3)C2 (single isomer, unassigned) [Example A78B]
Met
CCn1cc2cc(c1=O)-c1cnn(C)c1OCCC[C@@H](C)Cn1c(nc3ccc(N4CCN(C)CC4)cc31)NC2=O
Not met
C[C@@H]1CCCOc2c(cnn2C)-c2cc(cn(C)c2=O)C(=O)Nc2nc3ccc(N4CC5(CCCN5C)C4)cc3n2C1
Not met
CN1CCC2CN(c3ccc4nc5n(c4c3)C34CCC(CN(CCOc6c(cnn6C)-c6cc(cn(C)c6=O)C(=O)N5)C3)C4)CC21 (single isomer, unassigned) [Example A79B]
Not met
C[C@@H]1CCCOc2c(cnn2C)-c2cc(cn(C)c2=O)C(=O)Nc2nc3ccc(N4CCC5(CN(C)C5)C4)cc3n2C1
Not met
CN1CC2(C1)CN(c1ccc3nc4n(c3c1)C13CCC(CN(CCOc5c(cnn5C)-c5cc(cn(C)c5=O)C(=O)N4)C1)C3)C2 (single isomer, unassigned) [Example A92B]
Met
Cn1ncc2c1OCCN1CC3CCC(C3)(C1)n1c(nc3ccc(N4CCOCC4)cc31)NC(=O)c1cc-2c(=O)n(C)c1 (centres unmarked) [Example A62]
Not met
C[C@@H]1CCCOc2c(cnn2C)-c2cc(cn(C)c2=O)C(=O)Nc2nc3ccc(N4CC(N5CCN(C)CC5)C4)cc3n2C1
Not met
CN(C)CC1(F)CN(c2ccc3nc4n(c3c2)C23CCC(CN(CCOc5c(cnn5C)-c5cc(cn(C)c5=O)C(=O)N4)C2)C3)C1 (single isomer, unassigned) [Example A72B]
Met
Cn1ncc2c1OCCN1CC3CCC(C3)(C1)n1c(nc3ccccc31)NC(=O)c1cc-2c(=O)n(C)c1 (single isomer, unassigned) [Example A61A]
Not met
C[C@@H]1CCCOc2c(cnn2C)-c2cc(cn(C)c2=O)C(=O)Nc2nc3ccc(N4CCN(C5COC5)CC4)cc3n2C1
Not met
CN1CCC12CCN(c1ccc3nc4n(c3c1)C13CCC(CN(CCOc5c(cnn5C)-c5cc(cn(C)c5=O)C(=O)N4)C1)C3)CC2 (single isomer, unassigned) [Example A67A]
Not met
COCCN(C)c1ccc2nc3n(c2c1)C12CCC(CN(CCOc4c(cnn4C)-c4cc(cn(C)c4=O)C(=O)N3)C1)C2 (single isomer, unassigned) [Example A90A]
Not met
CCC1CCCOc2c(cnn2C)-c2cc(cn(C)c2=O)C(=O)Nc2nc3ccc(N4CCN(C)CC4)cc3n2C1 (single isomer, unassigned) [Example A16A]
Not met
Cn1ncc2c1OCCN1CC3CCC(C3)(C1)n1c(nc3cc(F)ccc31)NC(=O)c1cc-2c(=O)n(C)c1 (centres unmarked) [Example A117B]
Not met
Cn1ncc2c1OCCN(C1COC1)CCn1c(nc3ccccc31)NC(=O)c1cc-2c(=O)n(C)c1
Not met
